Reference source for all entries: paper PMC8563940

Each entry below carries its recorded Ki.
Target: human butyrylcholinesterase (hBChE) (Homo sapiens, UniProt P06276)
Construct: hBChE derived from purified human plasma
Sequence (P06276 29-602): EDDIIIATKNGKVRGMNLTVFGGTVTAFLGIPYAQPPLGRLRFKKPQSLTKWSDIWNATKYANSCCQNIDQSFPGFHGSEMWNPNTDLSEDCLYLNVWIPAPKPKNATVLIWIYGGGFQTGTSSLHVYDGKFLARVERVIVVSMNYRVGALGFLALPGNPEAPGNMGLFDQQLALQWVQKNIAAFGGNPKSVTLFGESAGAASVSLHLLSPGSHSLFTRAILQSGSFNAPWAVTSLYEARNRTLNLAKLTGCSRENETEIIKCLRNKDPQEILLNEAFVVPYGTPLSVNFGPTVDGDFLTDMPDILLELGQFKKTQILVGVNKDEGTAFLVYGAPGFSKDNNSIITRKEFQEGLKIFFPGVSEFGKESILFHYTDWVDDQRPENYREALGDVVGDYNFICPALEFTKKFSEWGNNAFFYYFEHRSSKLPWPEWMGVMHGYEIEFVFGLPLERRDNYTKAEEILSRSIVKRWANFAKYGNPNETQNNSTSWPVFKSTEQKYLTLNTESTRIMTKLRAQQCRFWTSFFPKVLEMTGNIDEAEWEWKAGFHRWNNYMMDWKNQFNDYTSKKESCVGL
Experiment: Progressive inhibition of hBChE by organophosphorus pesticides (Ellman method)
metric_name: Ki (µM)

INSERT INTO measurements (smiles_representation, metric_name, result_unit, number) VALUES
  ('CCCSP(=O)(OCC)SCCC', 'Ki', 'µM', 36.4),
  ('CCOP(=S)(OCC)SCn1c(=O)oc2cc(Cl)ccc21', 'Ki', 'µM', 97.9);
